- tested.system: SARS-CoV-2 RBD.mmh (Spike amino acids Arg319-Phe541 with C-terminal myc-myc-6-Histidine tag) (SARS-CoV-2, UniProt P0DTC2 319-541)
Listed below: log10(IC50) values for each entry.
property.label: log10(IC50) (log10 of the value in nM)

[
  {
    "binder": "mAb15159 (antibody, V domains shown) VH: EVQLVESGGGLVQPGGSLRLSCAASGITVSSNYMTWVRQAPGKGLEWVSLIYSGGSTFYADSVRGRFTISRDNSKNTLYLQMNSLRAEDTAVYYCARDLVVYGMDVWGQGTTVTVSS VL: DIQLTQSPSSLSASVGDRVTITCRASQGISSYLAWYQQKPGKAPKLLIYAASTLQSGVPSRFSGSGSGTDFTLTISSLQPEDFATYYCQHLNSDPHTFGQGTKLEIKR",
    "measured": -0.81
  },
  {
    "binder": "mAb15164 (antibody, V domains shown) VH: EVQLVESGGGLVQPGGSLRLSCAASGFAVSSNYMTWVRQAPGKGLEWVATIYSGDSTYYADSVKGRFTISRHNSKNTLSLQMNSLRADDTAIYYCARLSGVLSGTYNGAFDIWGQGTMVTVSS VL: QSALTQPASVSGSPGQSITISCTGTSSDFGNYNIVSWYQQHPGQAPKVMIYEGNKRPSGVSNRFSGSKSGHTASLTISGLQAEDEADYYCSSYAGSSTWVFGGGTKLTVLG",
    "measured": -0.61
  },
  {
    "binder": "mAb14315 (antibody, V domains shown) VH: QVQLVQSGAEVKKPGSSVKVSCKASGDTFSTYAINWVRQAPGQGLEWMGRFIHIFGTANYAQKFQGRVTITADESTSTAYMELRSLRSEDTAVYYCARDGVDYGDYRPDYWGQGTLVTVSS VL: EIVLTQSPGTLSLSPGERATLSCRASQSVSSNYLAWYQQKPGQAPRLLIYGASSRATGIPERFSGSGSGTDFTLTISRLEPEDFAVYYCQQYGSSLYTFGQGTKLEIKR",
    "measured": 1.24
  },
  {
    "binder": "mAb15150 (antibody, V domains shown) VH: EVQLVETGGGLIQPGGSLRLSCAAPGFIVSSNYMSWVRQAPGKGLEWVSLLYPGGSTYYADSVKGRFTISRDNSKNTLYLQMNSLRADDTAVYYCARVLPIVEDHFDYWGQGTLVTVSS VL: DIQLTQSPSFLSASVGDRVTITCRASQGMSSYLAWYQKKPGKAPKLLIYGATILQSGVPSRFSGSGSGTEFTLTISSLQPEDFATYYCQQLNSDPLYMYTFGQGTKLEIKR",
    "measured": -0.60
  },
  {
    "binder": "mAb14282 (antibody, V domains shown) VH: QVQLVQSGAEVKKPGASVKVSCKASGYIFTDHYMHWVRQAPGQGLEWMGWINPNSGATNYAQNFQGRVTMTRDTSIITVYMELSRLRSDDTAVYYCARDSSPYMIRYTMDVWGQGTTITVSS VL: QSALTQPASVSGSPGQSITISCTGTSSDVGSYNLVSWYQQHPGKAPKLMIYELTKRPSGVSNRFSGSKSGNTASLTISGLQAEDEADYYCSSYRGSVTDVVFGGGTKLTVLG",
    "measured": -0.30
  }
]

This collection of values is drawn from patent US20260069689A1.
